B1: KLHL13 (parent)
chain: GVSKVGLRKIIDFIYTAKLSLNMD

# Variants of: B1
# procedure details: protein stability index of a GFP-peptide fusion (GPS, HEK-293T) (PSI 1-6); higher = more stable;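 also: lentivirally expressed fusions sorted by FACS into six bins by GFP to DsRed ratio, PSI derived from sequencing read proportions per bin multiplied by bin number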
# details: c terminus: a fixed tail appended
endpoint: protein stability index

biopolymer_sequence="KVSKVGLRKIIDFIYTAKLSLNMD [G1K]" reported_result=2.08
biopolymer_sequence="GVSKVGLRKKIDFIYTAKLSLNMD [I10K]" reported_result=2.98
biopolymer_sequence="GVSKVGLRKIIDFIYTAKLSLNCD [M23C]" reported_result=2.45
biopolymer_sequence="GVSYVGLRKIIDFIYTAKLSLNMD [K4Y]" reported_result=1.85
biopolymer_sequence="GVSKVGLRKIIDFYYTAKLSLNMD [I14Y]" reported_result=2.27
biopolymer_sequence="GVSKVGLRKIIDGIYTAKLSLNMD [F13G]" reported_result=2.41
biopolymer_sequence="GVSEVGLRKIIDFIYTAKLSLNMD [K4E]" reported_result=2.77
biopolymer_sequence="GVSKVGLLKIIDFIYTAKLSLNMD [R8L]" reported_result=4.65
biopolymer_sequence="GVSKVGLRKIIDFIYTAKLSLNMF [D24F]" reported_result=2.82
biopolymer_sequence="GHSKVGLRKIIDFIYTAKLSLNMD [V2H]" reported_result=1.7
biopolymer_sequence="GVSKVGLRKIIDFIYTAKNSLNMD [L19N]" reported_result=3.62
biopolymer_sequence="GVSKVGLRKIIDFPYTAKLSLNMD [I14P]" reported_result=2.12
